- System: RXF 393 renal
- TEST PROTOCOL: NCI tumour cell line growth inhibition, 48 h; in the data active means GI50 below about 0.43 µM; inactive means the rest
Outcome codes: Y = active, N = inactive

{"columns": ["STRUCTURE", "CAT"],
 "data": [
  ["CCOCCOC[C@H]1CCCN(c2ccnc3sc(C(N)=O)c(N)c23)C1", "N"],
  ["CCN1CCN(c2ccc(Nc3ncc4ccc5ncn(C(C)C)c5c4n3)nc2)CC1", "Y"],
  ["N#Cc1nn(-c2cc(=O)[nH]c3ccc(Br)cc23)c(N)c1C#N", "N"],
  ["Cc1cc2nc(C(Cl)Cl)nc(-c3ccccc3)n2n1", "N"],
  ["C=C1C(=O)O[C@H]2[C@H]1CC/C(COC(=O)NCc1cc(OC)cc(OC)c1)=C\\CC[C@@]1(C)O[C@@H]21", "N"],
  ["Nc1nc(-c2ccccc2)cc(-c2ccc(Cl)cc2)c1-c1nc2ccccc2o1", "N"],
  ["Fc1cccc(-c2[nH]nc3nc(Nc4cccnc4)sc23)c1", "N"],
  ["COc1cc(/C=C2\\C[C@H]3[C@@H]4CC=C5C[C@@H](OC(C)=O)CC[C@]5(C)[C@H]4CC[C@]3(C)[C@H]2OC(C)=O)ccc1OCCN1CCCCC1", "N"],
  ["CC(C)(C)c1cc(-c2nc3c(F)c(F)c(F)c(F)c3[nH]2)cc(C(C)(C)C)c1O", "N"]
]}
